The origin of these recorded values is patent US20220073604A1.

# Study system: T1, cynomolgus monkey IL-6 (cynomolgus monkey, UniProt P79341 28-212, limits assumed)
# T1 construct: Immobilised on the Biacore chip
# Procedure text: SPR (Biacore), periplasmic Fab
This section presents binders with their documented Ka values.
Returns: string containing the numeric result and its unit.

Worked set:
Req: Give the measured Ka of 55E10 (Fab, V domains shown, Periplasmic Fab; Suffix 'g1' not explained; also called 55E10g1) VH: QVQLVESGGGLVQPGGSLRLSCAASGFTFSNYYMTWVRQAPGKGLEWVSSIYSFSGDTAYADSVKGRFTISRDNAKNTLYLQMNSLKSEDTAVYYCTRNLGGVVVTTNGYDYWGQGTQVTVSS VL: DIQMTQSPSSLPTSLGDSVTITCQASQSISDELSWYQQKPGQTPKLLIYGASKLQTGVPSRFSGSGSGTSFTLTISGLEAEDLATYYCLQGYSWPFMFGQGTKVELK .
Resp: 2.1e+09 M⁻¹

Req: Give the measured Ka of 55C11 (Fab, V domains shown, Periplasmic Fab; Suffix 'f' not explained; also called 55C11f) VH: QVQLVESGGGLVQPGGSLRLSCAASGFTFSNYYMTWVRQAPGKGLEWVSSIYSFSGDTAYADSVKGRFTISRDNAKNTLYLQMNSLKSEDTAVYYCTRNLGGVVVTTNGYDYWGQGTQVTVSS VL: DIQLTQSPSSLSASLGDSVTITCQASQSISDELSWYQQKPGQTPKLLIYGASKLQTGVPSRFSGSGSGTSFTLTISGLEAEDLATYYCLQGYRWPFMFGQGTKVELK .
Resp: 3.2e+09 M⁻¹

Req: Give the measured Ka of 55A11 (Fab, V domains shown, Periplasmic Fab; Suffix 'd' of the label not explained; also called 55A11d) VH: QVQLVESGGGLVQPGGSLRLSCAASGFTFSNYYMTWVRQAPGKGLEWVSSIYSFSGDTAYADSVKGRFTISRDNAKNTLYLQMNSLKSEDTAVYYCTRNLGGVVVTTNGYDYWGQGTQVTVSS VL: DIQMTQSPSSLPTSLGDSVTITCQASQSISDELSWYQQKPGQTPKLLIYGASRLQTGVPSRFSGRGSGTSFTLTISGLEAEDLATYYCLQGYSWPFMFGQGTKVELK .
Resp: 1.77e+09 M⁻¹

Next item in the queue.
Req: Give the measured Ka of 48H1 (Fab, V domains shown, Periplasmic Fab; Suffix 'g2, R4' not explained; also called 48H1g2, R4) VH: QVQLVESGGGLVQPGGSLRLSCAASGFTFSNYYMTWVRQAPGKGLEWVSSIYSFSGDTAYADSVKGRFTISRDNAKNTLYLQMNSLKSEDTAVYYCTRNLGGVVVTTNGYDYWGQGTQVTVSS VL: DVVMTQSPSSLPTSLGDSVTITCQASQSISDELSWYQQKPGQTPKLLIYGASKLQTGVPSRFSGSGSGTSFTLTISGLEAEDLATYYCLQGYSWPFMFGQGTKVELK .
Resp: 1.18e+09 M⁻¹
